Below is a list of entries, each paired with its recorded log10 of IC50 value.
Biological target: Phosphatidylinositol 4,5-bisphosphate 3-kinase catalytic subunit alpha isoform (Homo sapiens)
Sequence (P42336 whole entry, canonical isoform): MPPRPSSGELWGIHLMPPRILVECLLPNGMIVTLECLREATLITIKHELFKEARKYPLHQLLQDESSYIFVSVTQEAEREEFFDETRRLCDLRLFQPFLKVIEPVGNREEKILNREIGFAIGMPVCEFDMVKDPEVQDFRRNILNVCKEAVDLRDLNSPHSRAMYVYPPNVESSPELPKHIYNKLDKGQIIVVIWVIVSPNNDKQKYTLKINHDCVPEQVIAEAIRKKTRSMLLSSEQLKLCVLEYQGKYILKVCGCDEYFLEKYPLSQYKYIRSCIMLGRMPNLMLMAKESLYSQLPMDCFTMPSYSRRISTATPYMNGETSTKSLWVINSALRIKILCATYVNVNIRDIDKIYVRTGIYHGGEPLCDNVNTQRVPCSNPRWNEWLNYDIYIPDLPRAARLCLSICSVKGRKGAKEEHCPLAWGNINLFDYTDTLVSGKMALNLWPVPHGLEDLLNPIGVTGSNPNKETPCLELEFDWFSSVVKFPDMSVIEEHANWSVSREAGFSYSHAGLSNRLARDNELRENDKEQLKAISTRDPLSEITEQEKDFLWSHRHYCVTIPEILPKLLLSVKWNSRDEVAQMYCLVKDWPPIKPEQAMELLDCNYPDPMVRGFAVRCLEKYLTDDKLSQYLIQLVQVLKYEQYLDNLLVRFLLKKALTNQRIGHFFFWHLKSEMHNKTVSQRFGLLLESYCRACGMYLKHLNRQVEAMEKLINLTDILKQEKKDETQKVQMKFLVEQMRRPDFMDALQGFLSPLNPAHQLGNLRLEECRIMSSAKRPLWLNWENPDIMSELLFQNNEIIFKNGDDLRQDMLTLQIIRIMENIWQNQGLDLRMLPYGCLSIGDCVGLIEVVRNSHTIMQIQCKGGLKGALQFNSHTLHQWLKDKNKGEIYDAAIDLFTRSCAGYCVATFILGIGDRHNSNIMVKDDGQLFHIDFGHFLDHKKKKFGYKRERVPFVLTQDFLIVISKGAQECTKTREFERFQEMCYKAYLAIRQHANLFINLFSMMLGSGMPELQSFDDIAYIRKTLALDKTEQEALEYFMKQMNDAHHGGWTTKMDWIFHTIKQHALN
Assay: Inhibition of human recombinant PI3Kalpha using PIP2 by Kinase-Glo Plus assay
Parameter value (number): base-10 log of IC50 in µM.

# example entries with known answers
{"Compound": "CC(Nc1cc(Cl)cc(Cl)c1)c1cc(C(=O)N(C)C)cc2c(=O)cc(N3CCOCC3)oc12 (racemic)", "log10 of IC50": -0.96}
{"Compound": "CC(c1cc(C(=O)N2CCCC2)cc2c(=O)cc(N3CCOCC3)oc12)N(C)c1cc(F)cc(F)c1 (racemic)", "log10 of IC50": -0.29}
{"Compound": "C[C@@H](Nc1cc(F)cc(F)c1)c1cc(C(=O)N(C)C)cc2c(=O)cc(N3CCOCC3)oc12 [AZD-8186]", "log10 of IC50": -1.46}
{"Compound": "C[C@@H](Nc1cc(F)cc(F)c1F)c1cc(C(=O)N(C)C)cc2c(=O)cc(N3CCOCC3)oc12", "log10 of IC50": -0.85}
{"Compound": "C[C@@H](Oc1cc(F)cc(F)c1)c1cc(C(=O)N(C)C)cc2c(=O)cc(N3CCOCC3)oc12", "log10 of IC50": -0.01}

**Query** State its log10 of IC50 for this compound: CC(Nc1cc(F)ccc1F)c1cc(C(=O)N(C)C)cc2c(=O)cc(N3CCOCC3)oc12 (racemic)
**Result** -0.35

**Query** In one line, give reported log10 of IC50 of the entry `C[C@H]1CN(c2cc(=O)c3cc(C(=O)N(C)C)cc([C@@H](C)Nc4cc(F)cc(F)c4)c3o2)CCO1` .
**Result** -1.92

**Query** Supply recorded log10 of IC50 for COCCNC(=O)c1cc(C(C)Nc2cc(F)cc(F)c2)c2oc(N3CCOCC3)cc(=O)c2c1 (racemic) here.
**Result** -1.24
